- Target desc: α4β1 integrin (Homo sapiens, UniProt P05556+P13612)
- Construct: endogenous in cells; host or cells: Ramos cells
- Sequence (P13612 34-1032): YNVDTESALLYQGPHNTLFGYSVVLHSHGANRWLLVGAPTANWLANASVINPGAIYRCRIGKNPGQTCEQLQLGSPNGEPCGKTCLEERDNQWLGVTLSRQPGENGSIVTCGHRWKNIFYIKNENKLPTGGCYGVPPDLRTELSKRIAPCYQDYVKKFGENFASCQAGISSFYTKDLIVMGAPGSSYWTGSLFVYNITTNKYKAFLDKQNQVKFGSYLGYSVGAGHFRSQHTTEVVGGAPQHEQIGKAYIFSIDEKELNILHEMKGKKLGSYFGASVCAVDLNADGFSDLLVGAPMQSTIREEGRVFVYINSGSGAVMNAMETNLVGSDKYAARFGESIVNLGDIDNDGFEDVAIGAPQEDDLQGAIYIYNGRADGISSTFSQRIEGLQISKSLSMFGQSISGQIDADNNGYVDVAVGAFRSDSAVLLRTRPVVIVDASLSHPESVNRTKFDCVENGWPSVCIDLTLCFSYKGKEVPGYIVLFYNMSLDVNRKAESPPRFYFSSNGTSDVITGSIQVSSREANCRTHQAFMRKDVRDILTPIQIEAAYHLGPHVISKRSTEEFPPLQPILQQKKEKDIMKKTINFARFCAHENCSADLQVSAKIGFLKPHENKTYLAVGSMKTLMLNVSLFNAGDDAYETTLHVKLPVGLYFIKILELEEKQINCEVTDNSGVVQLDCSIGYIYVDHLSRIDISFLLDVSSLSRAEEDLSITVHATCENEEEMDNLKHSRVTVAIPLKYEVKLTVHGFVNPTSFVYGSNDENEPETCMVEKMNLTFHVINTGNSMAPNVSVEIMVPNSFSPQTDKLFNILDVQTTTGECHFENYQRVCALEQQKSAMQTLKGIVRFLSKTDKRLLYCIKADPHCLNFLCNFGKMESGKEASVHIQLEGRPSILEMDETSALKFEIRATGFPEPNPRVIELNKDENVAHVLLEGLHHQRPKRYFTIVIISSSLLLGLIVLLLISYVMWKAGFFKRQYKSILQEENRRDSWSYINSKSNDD
- Sequence (P05556 21-798): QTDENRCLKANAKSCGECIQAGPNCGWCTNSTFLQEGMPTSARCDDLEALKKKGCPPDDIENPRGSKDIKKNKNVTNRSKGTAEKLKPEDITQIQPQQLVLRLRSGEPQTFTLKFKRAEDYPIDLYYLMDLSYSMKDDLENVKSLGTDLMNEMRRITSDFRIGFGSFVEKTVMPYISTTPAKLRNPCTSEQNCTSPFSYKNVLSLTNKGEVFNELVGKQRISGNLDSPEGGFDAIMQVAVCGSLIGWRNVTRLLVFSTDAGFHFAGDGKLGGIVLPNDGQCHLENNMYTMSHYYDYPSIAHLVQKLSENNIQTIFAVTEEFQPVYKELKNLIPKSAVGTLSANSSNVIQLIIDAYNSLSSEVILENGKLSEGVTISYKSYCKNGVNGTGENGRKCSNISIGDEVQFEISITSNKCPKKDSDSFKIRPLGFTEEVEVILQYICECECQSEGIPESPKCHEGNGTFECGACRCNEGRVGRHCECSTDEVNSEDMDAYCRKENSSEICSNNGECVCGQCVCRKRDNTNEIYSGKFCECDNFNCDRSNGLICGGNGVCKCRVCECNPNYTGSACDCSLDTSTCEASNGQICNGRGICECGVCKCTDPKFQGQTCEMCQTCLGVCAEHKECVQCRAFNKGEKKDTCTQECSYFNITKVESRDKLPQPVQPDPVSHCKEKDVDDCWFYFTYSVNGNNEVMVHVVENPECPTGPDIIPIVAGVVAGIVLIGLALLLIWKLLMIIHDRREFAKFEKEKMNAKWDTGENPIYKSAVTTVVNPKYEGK
- Test details: Adhesion of calcein-labeled Ramos cells to CS1 (fibronectin) peptide conjugated ovalbumin
- Type: cell-based
- Condition label: Table 7; Ramos cell adhesion to CS1 conjugated ovalbumin; dose required to give 50% inhibition
pIC50: −log10 of the molar value.
Observable: pIC50

Guide cases for pIC50, answers given:
Molecule | Observable | Measured
CCOc1ncc([C@H](CC(=O)O)NC(=O)Nc2c(O)c3c(n(Cc4ccccc4Cl)c2=O)CCC3)c(OCC)n1 | pIC50 | 7.82
Cc1cn(Cc2ccccc2Cl)c(=O)c(NC(=O)NC(CC(=O)O)c2cccc(N3CCCC3)c2)c1O (centres unmarked) | pIC50 | 8.00
CCOc1cccc(Cl)c1Cn1c2c(c(O)c(NC(=O)N[C@@H](CC(=O)O)c3cccc(OC4CCCC4)c3)c1=O)CCC2 | pIC50 | 8.22

(I) CCCOc1ccc(Cl)c(Cn2cc(C)c(O)c(NC(=O)N[C@@H](CC(=O)O)c3ccc(C)cc3)c2=O)c1
(II) CCCOc1cccc(Cl)c1Cn1cc(C)c(O)c(NC(=O)N[C@@H](CC(=O)O)c2ccc(C)cc2)c1=O
[in] Sorting by pIC50 in descending order, would I or II appear first? Selection: enter the item's label.
[out] I
(I: 8.22, II: 8.00)

----------
- Target desc: α4β1 integrin (Homo sapiens, UniProt P05556+P13612)
- Construct: endogenous in cells; host or cells: Ramos cells
- Test details: Adhesion of calcein-labeled Ramos cells to CS1 (fibronectin) peptide conjugated ovalbumin
- Format: cell-based
- Condition label: Table 6; Ramos cell adhesion to CS1 conjugated ovalbumin, 30 minutes at 37° C.
pIC50: −log10 of the molar value.
Observable: pIC50

(I) Cc1cn(Cc2ccccc2Cl)c(=O)c(NC(=O)N[C@@H](CC(=O)O)c2cccc(OC3CCCC3)c2)c1O
(II) Cc1ccc([C@H](CC(=O)O)NC(=O)Nc2c(O)c3ccccc3n(Cc3ccccc3Cl)c2=O)cc1C
[in] Sorting by pIC50 in descending order, would I or II appear first? Selection: enter the item's label.
[out] I
(I: 7.82, II: 7.60)

----------
- Target desc: α4β1 integrin (Homo sapiens, UniProt P05556+P13612)
- Construct: endogenous in cells; host or cells: Ramos cells
- Test details: Adhesion of calcein-labeled Ramos cells to CS1 (fibronectin) peptide conjugated ovalbumin
- Assay type: cell-based
- Condition label: Table 4; Ramos cell adhesion to CS1 conjugated ovalbumin, 30 minutes at 37° C.
- Source text: A procedure in which a 26-amino acid peptide containing the CS1 sequence of fibronectin with an N-terminal Cys ([…]) was coupled to maleimide activated ovalbumin was used to determine the efficacy of the compounds synthesized. […] Following three washes with binding buffer, adherent cells were lysed and quantitated using a fluorometer. […]
pIC50: −log10 of the molar value.
Observable: pIC50

Guide cases for pIC50, answers given:
Compound | Observable | Measured
CCCCN(C(=O)N[C@@H](CC(=O)O)c1ccc2c(c1)OCO2)C1CC(=O)N(Cc2ccccc2)C1=O (stereo partly drawn) | pIC50 | 4.15
Cc1ccc([C@H](CC(=O)O)NC(=O)Nc2c(-c3ccccn3)nc(C)n(Cc3ccccc3)c2=O)cc1 | pIC50 | 7.60
COc1ccc([C@H](CC(=O)O)NC(=O)Nc2c(O)ccn(Cc3ccccc3Cl)c2=O)c(C)c1C | pIC50 | 7.46
Cc1ccc([C@H](CC(=O)O)NC(=O)Nc2cccn(Cc3ccccc3Br)c2=O)cc1 | pIC50 | 7.30

(I) Cc1ccc([C@H](CC(=O)O)NC(=O)Nc2cccn(Cc3ccccc3F)c2=O)cc1
(II) O=C(O)C[C@H](NC(=O)Nc1cccn(Cc2ccccc2Cl)c1=O)c1ccc2c(c1)CCO2
(III) Cc1ccc([C@H](CC(=O)O)NC(=O)Nc2cccn(Cc3cc([N+](=O)[O-])ccc3Br)c2=O)cc1
(IV) Cc1ccc([C@H](CC(=O)O)NC(=O)Nc2cccn(Cc3ccc([N+](=O)[O-])cc3)c2=O)cc1
[in] Could you please sort these 4 entries by pIC50 from high to low? # the answer lists labels in the order requested
[out] II, I, IV, III

----------
- Target desc: α4β1 integrin (Homo sapiens, UniProt P05556+P13612)
- Construct: endogenous in cells; host or cells: Ramos cells
- Test details: Adhesion of calcein-labeled Ramos cells to CS1 (fibronectin) peptide conjugated ovalbumin
- Assay type: cell-based
- Condition label: Table 7; Ramos cell adhesion to CS1 conjugated ovalbumin; dose required to give 50% inhibition
pIC50: −log10 of the molar value.
Observable: pIC50

Guide cases for pIC50, answers given:
Query smiles | pIC50
CCOc1cccc([C@H](CC(=O)O)NC(=O)Nc2c(O)c3c(n(Cc4c(Cl)cccc4OCC)c2=O)CCC3)c1 | 8.70
Cc1cn(Cc2c(C)cccc2Cl)c(=O)c(NC(=O)N[C@@H](CC(=O)O)c2ccc3c(ccn3C)c2)c1O | 8.40
Cc1cccc(Cl)c1Cn1c2c(c(O)c(NC(=O)N[C@@H](CC(=O)O)c3cccc(N(C)S(C)(=O)=O)c3)c1=O)CCC2 | 8.89
COc1ccc([C@H](CC(=O)O)NC(=O)Nc2c(O)c3c(n(Cc4c(C)cccc4Cl)c2=O)CCC3)cc1F | 8.52
Cc1cn(Cc2ccccc2Cl)c(=O)c(NC(=O)N[C@@H](CC(=O)O)c2ccc3ccn(C)c3c2)c1O | 8.40
CCOc1ccc(Cl)c(Cl)c1Cn1c2c(c(O)c(NC(=O)N[C@@H](CC(=O)O)c3ccc(C)cc3)c1=O)CCC2 | 8.30
CCCOc1cccc(Cl)c1Cn1cc(C)c(O)c(NC(=O)N[C@@H](CC(=O)O)c2cccc(OCC)c2)c1=O | 8.30

(a) CCOc1cccc(Cl)c1Cn1c2c(c(O)c(NC(=O)N[C@@H](CC(=O)O)c3cccc(OC(C)C)c3)c1=O)CCC2
(b) Cc1cccc(Cl)c1Cn1c2c(c(O)c(NC(=O)N[C@@H](CC(=O)O)c3ccccc3)c1=O)CCC2
[in] Pick one: a or b . Which one has the lower reported pIC50? Selection: enter the item's label.
[out] b

----------
- Target desc: α4β1 integrin (Homo sapiens, UniProt P05556+P13612)
- Construct: endogenous in cells; host or cells: Ramos cells
- Test details: Adhesion of calcein-labeled Ramos cells to CS1 (fibronectin) peptide conjugated ovalbumin
- Type: cell-based
- Condition label: Table 4; Ramos cell adhesion to CS1 conjugated ovalbumin, 30 minutes at 37° C.
Observable: IC50 (nM)

Query smiles | Units label | IC50
Cc1ccc([C@H](CC(=O)O)NC(=O)Nc2cccn(Cc3ccc(C(C)(C)C)cc3)c2=O)cc1 | nM | 6000

(1) Cc1ccc([C@H](CC(=O)O)NC(=O)Nc2cccn(Cc3ccccc3C#N)c2=O)cc1
(2) Cc1ccc([C@H](CC(=O)O)NC(=O)Nc2cccn(Cc3c(Cl)cccc3Cl)c2=O)cc1
[in] Pick one: 1 or 2 . Which one has the lower reported IC50? Selection: enter the item's label.
[out] 1
(1: 100 nM, 2: 200 nM)

----------
- Target desc: α4β1 integrin (Homo sapiens, UniProt P05556+P13612)
- Construct: endogenous in cells; host or cells: Ramos cells
- Test details: Adhesion of calcein-labeled Ramos cells to CS1 (fibronectin) peptide conjugated ovalbumin
- Assay type: cell-based
- Condition label: Table 5; Ramos cell adhesion to CS1 conjugated ovalbumin; dose required to give 50% inhibition
pIC50: −log10 of the molar value.
Observable: pIC50

Guide cases for pIC50, answers given:
Query smiles | Measured
COc1cc(OC)cc([C@H](CC(=O)O)NC(=O)Nc2c(O)ccn(Cc3c(Cl)cccc3OC)c2=O)c1 | 8.82
CCCCc1cn(Cc2ccccc2Cl)c(=O)c(NC(=O)N[C@@H](CC(=O)O)c2ccc(C)cc2)c1O | 7.60

(a) COc1cc(C)c([C@H](CC(=O)O)NC(=O)Nc2c(O)ccn(Cc3ccccc3Cl)c2=O)cc1C
(b) CCCOc1ccc([C@H](CC(=O)O)NC(=O)Nc2c(O)ccn(Cc3ccccc3Cl)c2=O)cc1OCCC
(c) O=C(O)C[C@H](NC(=O)Nc1c(O)ccn(Cc2ccccc2Cl)c1=O)c1cc(F)cc(F)c1
(d) CCCc1cn(Cc2ccc(Cl)cc2)c(=O)c(NC(=O)N[C@@H](CC(=O)O)c2ccc(OCC)c(OCC)c2)c1O
[in] Could you please sort these 4 entries by pIC50 from high to low? # the answer lists labels in the order requested
[out] b, d, c, a
(b: 8.52, d: 7.82, c: 7.30, a: 7.10)

----------
- Target desc: α4β1 integrin (Homo sapiens, UniProt P05556+P13612)
- Construct: endogenous in cells; host or cells: Ramos cells
- Test details: Adhesion of calcein-labeled Ramos cells to CS1 (fibronectin) peptide conjugated ovalbumin
- Type: cell-based
- Condition label: Table 4; Ramos cell adhesion to CS1 conjugated ovalbumin, 30 minutes at 37° C.
pIC50: −log10 of the molar value.
Observable: pIC50

Guide cases for pIC50, answers given:
Molecule | pIC50
COc1ccc([C@H](CC(=O)O)NC(=O)Nc2cccn(Cc3ccccc3Cl)c2=O)cc1 | 7.00
Cc1ccc([C@H](CC(=O)O)NC(=O)Nc2cccn(Cc3c(C)cc(C)cc3C)c2=O)cc1 | 5.60
Cc1cc(C)cc([C@H](CC(=O)O)NC(=O)Nc2cccn(Cc3ccccc3Cl)c2=O)c1 | 7.00
COc1ccc(Cn2cccc(NC(=O)N[C@@H](CC(=O)O)c3ccc4c(c3)OCO4)c2=O)cc1 | 5.52
O=C(O)CC(NC(=O)Nc1cccn(Cc2ccccc2Cl)c1=O)c1ccc(Cl)c(Cl)c1 (stereo not drawn) | 6.00
Cc1ccc([C@H](CC(=O)O)NC(=O)Nc2cccn(Cc3ccc(Cl)cc3)c2=O)cc1 | 5.70

(1) Cc1cccc([C@H](CC(=O)O)NC(=O)Nc2cccn(Cc3ccccc3Cl)c2=O)c1
(2) Cc1ccc([C@H](CC(=O)O)NC(=O)Nc2cccn(Cc3ccc(Cl)cc3Br)c2=O)cc1
(3) O=C(O)C[C@H](NC(=O)Nc1cccn(Cc2ccccc2Cl)c1=O)c1c(O)cccc1O
[in] # ascending order, key=pIC50 # the answer lists labels in the order requested
[out] 3, 2, 1

(a) O=C(O)CC(NC(=O)Nc1cccn(Cc2ccccc2Cl)c1=O)c1cccc(Cl)c1 (stereo not drawn)
(b) Cc1ccc([C@H](CC(=O)O)NC(=O)Nc2cccn(Cc3cccc(Cl)c3Cl)c2=O)cc1
[in] Pick one: a or b . Which one has the lower reported pIC50? Selection: enter the item's label.
[out] a
